I'd appreciate it if you could supply Kd values for the items below.
# Study System: Fc-fusion protein of human PSMA (hPSMA-Fc) (Homo sapiens, UniProt Q04609)
# Construct: purchased Acro Biosystems PSA-H5264
# Sequence (Q04609 44-750 limits assumed): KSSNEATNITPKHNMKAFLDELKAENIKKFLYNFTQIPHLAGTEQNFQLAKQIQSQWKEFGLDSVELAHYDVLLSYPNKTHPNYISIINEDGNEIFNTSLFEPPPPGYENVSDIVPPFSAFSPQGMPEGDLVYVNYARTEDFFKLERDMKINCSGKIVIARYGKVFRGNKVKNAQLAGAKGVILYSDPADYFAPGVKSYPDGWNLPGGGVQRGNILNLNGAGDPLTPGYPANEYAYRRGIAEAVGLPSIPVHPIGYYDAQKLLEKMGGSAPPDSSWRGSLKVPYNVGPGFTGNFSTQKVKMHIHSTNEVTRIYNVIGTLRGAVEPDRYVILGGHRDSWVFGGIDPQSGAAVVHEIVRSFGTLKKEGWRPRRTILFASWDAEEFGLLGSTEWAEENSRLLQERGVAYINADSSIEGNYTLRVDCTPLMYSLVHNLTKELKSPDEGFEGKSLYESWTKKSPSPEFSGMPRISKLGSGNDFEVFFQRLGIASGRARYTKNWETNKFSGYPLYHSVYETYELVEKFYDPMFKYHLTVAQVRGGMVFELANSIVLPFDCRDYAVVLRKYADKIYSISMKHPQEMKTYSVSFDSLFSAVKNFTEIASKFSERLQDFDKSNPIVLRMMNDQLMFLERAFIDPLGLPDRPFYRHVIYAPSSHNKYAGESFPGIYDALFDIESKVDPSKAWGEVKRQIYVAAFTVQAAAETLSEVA
# Experimental Protocol: Surface plasmon resonance assay (Biacore T200, single cycle kinetic)
# Type: binding
# Measurement Conditions: SPR, hPSMA-Fc, single cycle kinetic, 25° C.; category; read-out: pKD CAT (converted)
Numbered stars: 1 amine (or outer) side, 2 acyl side, 3 side chain; on linkers, the order of the positions; unused ones are H or OH. Bridge positions count the residues as written; N and C are the ends. Square brackets hold non-standard residues; d marks the D form. Peptide text beside a SMILES is read from it. * marks the point of attachment. TtdsdLys(DOTA)NH2 = NC(=O)[C@@H](CCCCNC(=O)CN1CCN(CC(=O)O)CCN(CC(=O)O)CCN(CC(=O)O)CC1)NC(=O)CCC(=O)NCCCOCCOCCOCCCN*; DOTA = O=C(O)CN1CCN(CC(=O)O)CCN(CC(=O)*)CCN(CC(=O)O)CC1; Phe(4-Cl) = N[C@@H](Cc1ccc(Cl)cc1)C(=O)O; X4 = O=C(CN1CCC(N[*:1])CC1)[*:2]; X1 = O=C(CC1CCN([*:1])CC1)[*:2]; Cit = NC(=O)NCCC[C@H](N)C(=O)O; Lys(Me) = CNCCCC[C@H](N)C(=O)O; Tle = CC(C)(C)[C@H](N)C(=O)O; Orn = NCCC[C@H](N)C(=O)O; Aib = CC(C)(N)C(=O)O

Look at each molecule and report its Kd.
1. C[C@@H](O)[C@H](NC(=O)[C@@H](NC(=O)[C@@H]1CSSC[C@H](NC(=O)[C@H](Cc2ccc(Cl)cc2)NC(=O)C(C)(C)NC(=O)[C@@H](NC(=O)CC2CCN(C(=O)CN3CCN(CC(=O)O)CCN(CC(=O)O)CCN(CC(=O)O)CC3)CC2)[C@@H](C)O)C(=O)N[C@@H](CCCCN)C(=O)N[C@@H](CCCN)C(=O)NC(C)(C)C(=O)N[C@@H](CC(N)=O)C(=O)N1)C(C)(C)C)C(N)=O [PSM-0245] ({DOTA}-[X1]T[Aib][Phe(4-Cl)]CK[Orn][Aib]NC[Tle]T-NH2; disulfide 5-10)
2. CNCCCC[C@@H]1NC(=O)[C@@H](NC(=O)[C@H](Cc2ccc(Cl)cc2)NC(=O)C(C)(C)NC(=O)[C@@H](NC(=O)CC2CCN(C(=O)CN3CCN(CC(=O)O)CCN(CC(=O)O)CCN(CC(=O)O)CC3)CC2)[C@@H](C)O)CSSC[C@@H](C(=O)N[C@H](C(N)=O)C(C)(C)C)NC(=O)[C@H](CC(N)=O)NC(=O)C(C)(C)NC(=O)[C@H](CCCNC(=N)N)NC1=O [PSM-0200] ({DOTA}-[X1]T[Aib][Phe(4-Cl)]C[Lys(Me)]R[Aib]NC[Tle]-NH2; disulfide 5-10)
3. C[C@@H](O)[C@H](NC(=O)[C@@H](NC(=O)[C@@H]1CSSC[C@H](NC(=O)[C@H](Cc2ccccc2)NC(=O)C(C)(C)NC(=O)CN2CCC(NC(=O)CN3CCN(CC(=O)O)CCN(CC(=O)O)CCN(CC(=O)O)CC3)CC2)C(=O)N[C@@H](CCCCN)C(=O)N[C@@H](CCCNC(=N)N)C(=O)NC(C)(C)C(=O)N[C@@H](CC(N)=O)C(=O)N1)C(C)(C)C)C(N)=O [PSM-0261] ({DOTA}-[X4][Aib]FCKR[Aib]NC[Tle]T-NH2; disulfide 4-9)
4. CC(=O)N[C@H](C(=O)NC(C)(C)C(=O)N[C@@H](Cc1ccccc1)C(=O)N[C@H]1CSSC[C@@H](C(=O)N[C@H](C(=O)N[C@H](C(=O)NCCCOCCOCCOCCCNC(=O)CCC(=O)N[C@H](CCCCNC(=O)CN2CCN(CC(=O)O)CCN(CC(=O)O)CCN(CC(=O)O)CC2)C(N)=O)[C@@H](C)O)C(C)(C)C)NC(=O)[C@H](CC(N)=O)NC(=O)[C@H](C)NC(=O)[C@H](CCCNC(=N)N)NC(=O)[C@H](CCCCN)NC1=O)[C@@H](C)O [PSM-0231] (Ac-T[Aib]FCKRANC[Tle]T-{TtdsdLys(DOTA)NH2}; disulfide 4-9)

1. < 12.6 nM
2. < 12.6 nM
3. 12.6 to 126 nM
4. < 12.6 nM

Field request: Kd | item: CC(=O)N[C@H](C(=O)NC(C)(C)C(=O)N[C@@H](Cc1ccc(Cl)cc1)C(=O)N[C@H]1CSSC[C@@H](C(=O)N[C@H](C(=O)N[C@H](C(N)=O)[C@@H](C)O)C(C)(C)C)NC(=O)[C@H](CC(N)=O)NC(=O)C(C)(C)NC(=O)[C@H](CCCNC(N)=O)NC(=O)[C@H](CCCCN)NC1=O)[C@@H](C)O [PSM-0179] (Ac-T[Aib][Phe(4-Cl)]CK[Cit][Aib]NC[Tle]T-NH2; disulfide 4-9)
< 12.6 nM
